test system: NIH3T3; assay: cells; conditions: Mus musculus
Description: Inhibition of anchorage independent growth of H-ras transformed NIH3T3 cells in Soft Agar
Returns the class for an entry based on its EC50. Class ranges: bucket A = under 30 nM, bucket B = from 30 nM up to 300 nM, bucket C = 300 nM and over

Some solved entries appear below for comparison.
molecule	assigned category
CS(=O)(=O)N1Cc2cc(Br)ccc2N(Cc2c[nH]cn2)CC1Cc1ccccc1Cl (stereo not given)	bucket C
CS(=O)(=O)N1Cc2cc(-c3ccccc3)ccc2N(Cc2c[nH]cn2)CC1Cc1ccccc1 (stereo not given)	bucket C
CS(=O)(=O)N1Cc2cc(Br)ccc2N(Cc2c[nH]cn2)C[C@H]1Cc1ccccc1	bucket B
CC(=O)N1Cc2cc(Br)ccc2N(Cc2c[nH]cn2)CC1Cc1ccccc1 (stereo not given)	bucket C

[ask] Input CN(C)S(=O)(=O)N1Cc2cc(C#N)ccc2N(Cc2c[nH]cn2)C[C@H]1Cc1ccccc1 ; output its category
[reply] bucket B

[ask] Try CS(=O)(=O)N1Cc2cc(-c3ccccc3)ccc2N(Cc2c[nH]cn2)C[C@H]1Cc1cccnc1 next.
[reply] bucket A

[ask] Try CS(=O)(=O)N1Cc2cc(Br)ccc2N(Cc2c[nH]cn2)CC1CCc1ccccc1 (stereo not given) next.
[reply] bucket C

[ask] Try CCCS(=O)(=O)N1Cc2cc(C#N)ccc2N(Cc2cnc[nH]2)C[C@H]1Cc1ccccc1 next.
[reply] bucket A

[ask] Try CC(=O)N1Cc2cc(C#N)ccc2N(Cc2c[nH]cn2)C[C@H]1Cc1ccccc1 next.
[reply] bucket B

[ask] Try N#Cc1ccc2c(c1)CN(S(=O)(=O)c1ccccc1)[C@H](Cc1ccccc1)CN2Cc1cnc[nH]1 next.
[reply] bucket A

[ask] Try CS(=O)(=O)N1Cc2cc(Br)ccc2N(Cc2c[nH]cn2)CC1Cc1ccccc1 (stereo not given) next.
[reply] bucket B

[ask] Try CS(=O)(=O)N1Cc2cc(C#N)ccc2N(Cc2c[nH]cn2)C[C@H]1Cc1ccccc1 next.
[reply] bucket A

[ask] Try CS(=O)(=O)N1Cc2cc(-c3ccncc3)ccc2N(Cc2c[nH]cn2)C[C@H]1Cc1ccccc1 next.
[reply] bucket B

---

target: Protein farnesyltransferase (Rattus norvegicus) (UniProt Q04631+Q02293); test: Percent phenotypic reversion of H-ras transformed Rat-1 cells at 10 uM; format: functional, cell-based
quantity: Reversion (%)
Note: unit % is implicit; provide only the numeric part.

// worked examples, Reversion included
compound	target	Reversion (%)
CS(=O)(=O)N1Cc2cc(Br)ccc2N(Cc2c[nH]cn2)CC1Cc1cccc(Cl)c1 (stereo not given)	Protein farnesyltransferase (Rattus norvegicus) (UniProt Q04631+Q02293)	70
CS(=O)(=O)N1Cc2cc(Br)ccc2N(Cc2c[nH]cn2)C[C@H]1CC1CCCCC1	Protein farnesyltransferase (Rattus norvegicus) (UniProt Q04631+Q02293)	90
O=C(c1cccc2ccccc12)N1CCN(Cc2c[nH]cn2)c2ccccc2C1	Protein farnesyltransferase (Rattus norvegicus) (UniProt Q04631+Q02293)	0
O=C(c1cccc2ccccc12)N1Cc2ccccc2N(Cc2c[nH]cn2)CC1Cc1ccccc1 (stereo not given)	Protein farnesyltransferase (Rattus norvegicus) (UniProt Q04631+Q02293)	70

Then there is this compound:
[ask] Requested read-out: Reversion. Entry: CC1CN(Cc2c[nH]cn2)c2ccccc2CN1C(=O)c1cccc2ccccc12 (stereo not given)
[reply] 0

---

assay: Oral bioavailability, based on dose-normalized AUC values in BALB/c mice; assay type: ADME, organism-based; details: mouse, in vivo
quantity: bioavailability (%)
Note: unit % is implicit; provide only the numeric part.

[ask] Requested read-out: bioavailability. Entry: CS(=O)(=O)N1Cc2cc(Br)ccc2N(Cc2cnc[nH]2)C[C@H]1Cc1ccccc1
[reply] 40
